The following binders are shown together with reported pKd values.
Target: T1, human TIGIT (Sinobiological Co., Ltd., Cat. 10917-H08-H) (human, UniProt Q495A1 22-141)
T1 construct: also called huTIGIT; TIGIT-His
T1 sequence (looked up): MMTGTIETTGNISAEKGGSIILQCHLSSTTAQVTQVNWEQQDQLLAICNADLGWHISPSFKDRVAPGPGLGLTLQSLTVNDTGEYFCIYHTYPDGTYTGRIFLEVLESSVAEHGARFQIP
Experiment: SPR (Biacore T200), antibody captured via Protein A, huTIGIT in mobile phase, 1:1 Langmuir fit
pKd: −log10 of the molar value.
OBSERVABLE: pKd

# BINDER, REPORTED VALUE
records = [
    ("h1710-01 (antibody, human IgG4 S228P, kappa, V domains shown, also called humanized TIGIT antibody h1710-01) VH: EVQLVQSGAEVKKPGASVKVSCKASGYTFTNYYMHWVRQAPGQGLEWMGRIDPTSGATKYNDNFKGRVTMTRDTSTSTVYMELSSLRSEDTAVYYCAREGGFGYYFDYWGQGTTVTVSS VL: DIQMTQSPSSLSASVGDRVTITCRTSENIFTYLAWYQQKPGKAPKLLIYNAKTFAEGVPSRFSGSGSGTDFTLTISSLQPEDFATYYCQHHYGIPLPFGQGTKLEIKR", 9.83),
    ("22G2-H3Q (antibody, human IgG4 S228P, kappa, V domains shown) VH: QVQLQESGPGLVKPSETLSLTCTVSGGSVSSGIYYWSWIRQPPGKGLEWIGYIYYSGSTNYNPSLKSRVTISVDTSKNQFSLKLSSVTAADTAVYYCARDYYVSGNYYNVDYYFFGVDVWGQGTTVTVSS VL: EIVLTQSPATLSLSPGERATLSCRASQSVSSYLAWYQQKPGQAPRLLIYDASNRATGIPARFSGSGSGTDFTLTISSLEPEDFAVYYCQQRSNWPPLFTFGPGTKVDIKR", 9.15),
    ("h1707-02 (antibody, human IgG4 S228P, kappa, V domains shown, also called humanized TIGIT antibody h1707-02) VH: EVQLVESGGGLVQPGGSLRLSCAASGFTFSDYHMYWVRQAPGKGLEWVAYISKGGISTYYPDTVKGRFTISRDNAKNSLYLQMSRLRAEDTAVYYCARQSSYDFAMDYWGRGTLVTVSS VL: DIQMTQSPSFLSASVGDRVTITCKASQDVGTSVAWYQQKPGKAPKLLIYWASARHTGVPSRFSGSGSGTDFTLTISSLQPEDFATYYCQQYSSYPLTFGQGTKLEIKR", 9.97),
    ("h1709-10 (antibody, human IgG4 S228P, kappa, V domains shown, also called humanized TIGIT antibody h1709-10) VH: EVQLVQSGAEVKKPGASVKVSCKASGYTFTDYYMHWVRQAPGQGLEWMGLVYPYNDNTGYNRKFKGRVTMTVDTSTSTVYMELNSLRSEDTAVYYCARGGPSNWNYFDYWGQGTLVTVSS VL: DIQMTQSPSSLSASVGDRVTITCKASQNVVTAVAWYQQKPGKSPKLLIYSASNRYTGVPDRFSGSGSGTDFTLTISSLQPEDFATYFCQQYTLYPLTFGGGTKVEIKR", 9.98),
    ("h1708-04 (antibody, human IgG4 S228P, kappa, V domains shown, also called humanized TIGIT antibody h1708-04) VH: EVQLVQSGAEVKKPGASVKVSCKASGYTFTNYWMHWVRQAPGQGLEWMGRIDPDSTGSKYNEKFKTRVTMTRDTSTSTVYMELSSLRSEDTAVYYCAREGAYGYYFDYWGQGTLVTVSS VL: DIQMTQSPSSLSASVGDRVTITCRASENIYSYLAWYQQKPGKSPKLLIYNARTLAEGVPSRFSGSGSGTDFTLTISSLQPEDFATYYCQYHSGSPLPFGGGTKVEIKR", 9.98),
]
